tgt: T1, M8
T1 construct: also called PD1 mutant M8
experiment description: ELISA, 1 ug/ml
measurement name: OD490
Answer with a bare number; do not write a unit.

Consider the binder PD1-52E8 (antibody, V domains shown, scFv-phage in the screening ELISA; whole IgG in the other assays) VH: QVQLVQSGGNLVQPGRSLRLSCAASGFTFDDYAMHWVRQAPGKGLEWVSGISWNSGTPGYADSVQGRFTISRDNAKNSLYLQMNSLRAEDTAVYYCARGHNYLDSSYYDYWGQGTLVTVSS VL: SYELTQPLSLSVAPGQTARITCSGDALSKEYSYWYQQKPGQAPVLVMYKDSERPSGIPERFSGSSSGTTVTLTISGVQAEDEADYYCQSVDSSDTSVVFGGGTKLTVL . State its measured OD490.
0.6

Consider the binder PD1-45D6 (antibody, V domains shown, scFv-phage in the screening ELISA; whole IgG in the other assays) VH: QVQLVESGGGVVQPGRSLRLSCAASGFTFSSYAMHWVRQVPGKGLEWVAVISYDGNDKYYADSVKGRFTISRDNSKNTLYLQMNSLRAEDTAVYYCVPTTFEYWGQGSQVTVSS VL: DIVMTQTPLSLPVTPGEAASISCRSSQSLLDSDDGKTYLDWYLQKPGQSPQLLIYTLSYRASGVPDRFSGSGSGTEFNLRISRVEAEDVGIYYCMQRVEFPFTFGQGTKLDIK . State its measured OD490.
3.8

Consider the binder PD1-41C9 (antibody, V domains shown, scFv-phage in the screening ELISA; whole IgG in the other assays) VH: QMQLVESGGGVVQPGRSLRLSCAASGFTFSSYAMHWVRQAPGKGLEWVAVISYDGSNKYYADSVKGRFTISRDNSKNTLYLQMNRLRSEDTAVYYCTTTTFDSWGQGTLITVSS VL: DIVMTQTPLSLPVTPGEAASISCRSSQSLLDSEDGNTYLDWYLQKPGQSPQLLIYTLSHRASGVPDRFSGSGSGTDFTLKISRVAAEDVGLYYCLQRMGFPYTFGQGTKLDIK . State its measured OD490.
2.5

Consider the binder PD1-49A2 (antibody, V domains shown, scFv-phage in the screening ELISA; whole IgG in the other assays; also called Parent 49A2) VH: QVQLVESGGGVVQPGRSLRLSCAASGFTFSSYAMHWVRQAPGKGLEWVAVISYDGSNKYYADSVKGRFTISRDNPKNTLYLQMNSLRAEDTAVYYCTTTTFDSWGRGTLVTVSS VL: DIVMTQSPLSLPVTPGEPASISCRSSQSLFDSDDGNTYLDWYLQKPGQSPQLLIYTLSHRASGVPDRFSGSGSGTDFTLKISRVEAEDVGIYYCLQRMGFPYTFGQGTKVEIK . State its measured OD490.
3

Reference source for all entries: patent US20190248900A1
